The measurements presented in this section are drawn from BigSolDB 2.1.

- CONDITION DESCRIPTION: in dichloromethane, 288.15 K
EXPERIMENTAL ENDPOINT: solubility (mole fraction)

For the compound shown here, `Clc1cccnc1Cl` , give the reported solubility (mole fraction).
0.27

* * *

- CONDITION DESCRIPTION: in cyclohexane, 303.15 K
EXPERIMENTAL ENDPOINT: solubility (mole fraction)

For the compound shown here, `Clc1cccnc1Cl` , give the reported solubility (mole fraction).
0.106

* * *

- CONDITION DESCRIPTION: in ethanol, 298.15 K
EXPERIMENTAL ENDPOINT: solubility (mole fraction)
Answer with the value's number alone.

For the compound shown here, `Clc1cccnc1Cl` , give the reported solubility (mole fraction).
0.0902
